Test system: SN12C renal
Assay: NCI tumour cell line growth inhibition, 48 h; in the data active = GI50 below about 0.43 µM; inactive = the rest
Lab note: assign the record to one of active, inactive

Prompt line: Kindly provide the recorded test outcome for the following compound: CCN1C(=O)N(CC)C2C1NN=c1s/c(=C3\C(=O)N(C(C)C)c4ccccc43)c(=O)n12 (centres undefined)
Response line: inactive

Prompt line: Kindly provide the recorded test outcome for the following compound: CC[C@](C)(O)C(=O)O[C@H]1C(=O)O[C@@H]2C[C@H]3C(C)=CC(=O)[C@@H](O)[C@]3(C)[C@H]3[C@@]4(O)OC[C@]32[C@@H]1[C@@H](C)[C@H]4O
Response line: active

Prompt line: Kindly provide the recorded test outcome for the following compound: CC12CCC=CC1CCC1C2CCC2(C)C(c3ccc(=O)oc3)CCC12O (centres undefined)
Response line: active

Prompt line: Kindly provide the recorded test outcome for the following compound: COc1cc2nc(Cl)nc(Nc3cccc(C(=O)/C=C/c4ccccc4)c3)c2cc1OC
Response line: inactive

Prompt line: Kindly provide the recorded test outcome for the following compound: CCn1c(-c2nonc2N)nc2cncc(C(=O)N3CCNCC3)c21
Response line: inactive

Prompt line: Kindly provide the recorded test outcome for the following compound: C=CCC(N[C@H](CO)C(C)C)c1cn(C(=O)OCC)c2ccccc12 (some centres undefined)
Response line: inactive

Prompt line: Kindly provide the recorded test outcome for the following compound: N#CC(C#N)=CN1CCN(C(=O)c2ccco2)C1=S
Response line: inactive

Prompt line: Kindly provide the recorded test outcome for the following compound: CN(C)CCNC(=O)c1cccn2c(=O)c3cc4ccccc4cc3nc12
Response line: active

Prompt line: Kindly provide the recorded test outcome for the following compound: CCc1ccc(NC(=O)Nc2c[nH]c3ccccc23)cc1
Response line: inactive
